target: CRF receptor (Rattus norvegicus, UniProt P35353); construct: the cerebral cortex was removed and the tissue homogenized; from tissue; host or cells: cerebral cortex membranes of male Sprague-Dawley rats; experiment: In vitro receptor binding: inhibition of specific binding of [125I]tyrosine-oCRF to rat cerebral cortex membranes; details: Inhibition of CRF Binding, Rat Cerebral Cortex Membrane, IC50, Table I, Formula I; [125I]Tyr-oCRF 50-100 pM; 2 hours at room temperature
Sequence (P35353 24-415): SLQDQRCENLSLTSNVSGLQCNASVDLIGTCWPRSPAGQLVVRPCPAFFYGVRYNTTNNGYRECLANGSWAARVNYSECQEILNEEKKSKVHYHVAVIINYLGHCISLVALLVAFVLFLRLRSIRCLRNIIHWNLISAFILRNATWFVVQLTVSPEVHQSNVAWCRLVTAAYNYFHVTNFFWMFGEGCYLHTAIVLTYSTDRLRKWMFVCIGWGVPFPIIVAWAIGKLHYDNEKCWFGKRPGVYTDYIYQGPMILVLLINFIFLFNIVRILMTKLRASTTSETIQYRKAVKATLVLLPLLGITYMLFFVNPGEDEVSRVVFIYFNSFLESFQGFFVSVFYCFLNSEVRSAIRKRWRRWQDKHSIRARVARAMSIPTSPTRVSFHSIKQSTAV
IC50 reference
// units = µM; emit number, no label

Ask | I'd like to know its IC50. The compound in question is Cc1c(SC#N)c(=O)n(-c2c(Cl)cccc2Cl)n1C [Formula I: 2,6-Cl2 Ph, CH3, CH3, SCN]
Reply | 18.9

Ask | I'd like to know its IC50. The compound in question is CCCn1c(C)c(SC#N)c(=O)n1-c1ccccc1 [Formula I: Ph, (CH2)2 CH3, CH3, SCN]
Reply | 32

Ask | I'd like to know its IC50. The compound in question is `Cc1c(SC#N)c(=O)n(C)n1Cc1ccccc1`
Reply | 33.6

Continuing:
Ask | I'd like to know its IC50. The compound in question is CCn1c(C)c(SC#N)c(=O)n1CC [Formula I: C2 H5, C2 H5, CH3, SCN]
Reply | 111

Ask | I'd like to know its IC50. The compound in question is CCn1c(C)c(SC#N)c(=O)n1-c1ccc(Cl)c(Cl)c1 [Formula I: 3,4 Cl2 Ph, C2 H5, CH3, SCN]
Reply | 4.9

Ask | I'd like to know its IC50. The compound in question is Cc1c(SC(Cl)(Cl)Cl)c(=O)n(-c2ccccc2)n1C [Formula I: Ph, CH3, CH3, SCCl3]
Reply | 20.4
